Biological target: Bile acid receptor (Homo sapiens)
Experiment: qHTS assay for small molecule agonists of farnesoid X receptor signaling (AID 588527);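 further: series mostly up to about 77 µM; 0% = vehicle basal and 100% = reference agonist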
Details: HEK293T FXR-UAS-bla, beta-lactamase ratio, 16 h; hits give high values
Inconclusive results are not listed. Activity calls are given as the source filed them. The call rests on the fitted dose curve.
QUANTITY: activation

Examples with answers:
O=S(=O)(c1ccc(Cl)cc1)c1cc(Cl)c(Cl)cc1Cl	3.42% (inactive)
CCOC(C)(C)C	2.11% (inactive)
CN(CCO)CC(O)Cn1cnc2c1c(=O)n(C)c(=O)n2C (stereo not drawn) (tested in a mixture with another compound)	1.67% (inactive)
CCOP(=O)(OCC)SCSP(=S)(OCC)OCC	10.4% (inactive)

The compound CCC(C)(C)C(=O)O showed activation equal to 0.339% (inactive)

The compound CC(=O)CC(=O)Nc1ccc(C)cc1C showed activation equal to 0.192% (inactive)

The compound COc1ccc(OC)c(OC)c1 showed activation equal to 0.0379% (inactive)

The compound CC(C)(C)OOC(C)(C)c1ccc(C(C)(C)OOC(C)(C)C)cc1 showed activation equal to 3.45% (inactive)

The compound C/C=C/C/C=C\CCCCCCCCOC(C)=O showed activation equal to -4.9% (inactive)

The compound O=C1c2ccccc2C(=O)N1SC(Cl)(Cl)Cl showed activation equal to 6.44% (inactive)

The compound Nc1ccccc1O showed activation equal to -1.93% (inactive)

The compound CS/C(=N\O)C(=O)N(C)C showed activation equal to -1.99% (inactive)

The compound Cc1cc(C)cc(N)c1 showed activation equal to -1.69% (inactive)
